Just for reference, PubChem BioAssay (NCI) is where these values come from.

# Tested on: HL-60(TB) leukemia
# test.name: NCI-60 one-dose screen, 48 h
# test.context: 10 µM unless noted
Compounds without any hit were thinned out: in the full panel of roughly 83,000, 20% have a hit. Activity calls are given as the source filed them. The calls were made as follows: active = growth percent below 10; inactive = the rest.
Tick one outcome: Y = active, N = inactive

Illustrative cases are given below, each with its answer.
molecule | subject.of.test | qualitative.label
O=C(Nc1cccc2c1CCCC2)c1cc2ccccc2cc1O | HL-60(TB) leukemia | N
Cc1ccc(Nc2nc(N)nc(Nc3ccc4ccccc4c3)n2)cc1 | HL-60(TB) leukemia | N
CN1CCn2c(c(Sc3ccc(C(=O)NO)cc3)c3ccccc32)C1=O | HL-60(TB) leukemia | Y
Cc1nnc(-c2cc3c(ccc4ccccc43)oc2=O)c2cn(-c3ccc(Cl)cc3)nc12 | HL-60(TB) leukemia | N
OC(c1cc2c(Cl)cc(Cl)cc2c2cc(C(F)(F)F)ccc12)C1CCCCN1 (stereo not given) | HL-60(TB) leukemia | Y

// outcome(item) with item = O=S1(=O)N(Cc2ccccc2)[C@@H](Cc2ccccc2)C2O[C@H]2[C@H](Cc2ccccc2)N1Cc1ccccc1 (stereo not given in full) N

// outcome(item) with item = CCCCCCCCCC(C)NC(=O)CCl (stereo not given) N

// outcome(item) with item = CCCc1cc(=O)n2c(C(=O)Nc3cccc(C(=O)OCC)c3)c(C(=O)Nc3ccc(F)cc3)sc2n1 N

// outcome(item) with item = CN1CCN(Cc2ccc(NC(=O)c3cncc(C#Cc4cnc(N)cc4C#N)c3)cc2C(F)(F)F)CC1 Y

// outcome(item) with item = COc1cc(-c2csc(NC(=O)Nc3ccc(Cl)c(C(F)(F)F)c3)n2)cc(OC)c1OC Y

* * *

# Tested on: OVCAR-3 ovarian
# test.name: NCI-60 one-dose screen, 48 h (100 = growth as untreated, 0 = no growth, -100 = all killed)
# test.context: 10 µM unless noted
# Description: Growth inhibition of the OVCAR-3 human tumor cell line is measured as a screen for anti-cancer activity. Cells are grown in 96 well plates and exposed to the test compound for 48 hours. Compounds are tested at a single concentration, which is 10^-5 M for most compounds. The reported endpoint is percent growth (GI% or GIPRCNT), where numbers from 0 - 100% represent growth inhibition, and numbers from -100% - 0 represent cell death. For example, a value of 40 represents 60% growth inhibition. […]
The panel holds about 83,000 compounds, 20% with a hit somewhere; the sample as a whole holds those more often.
readout.name: growth (%)
Give the value, in units of %, as a plain number.

compound | unit.descriptor | growth
O=C(O)CC(Br)C(=O)CBr (stereo unspecified) | % | 114

Please find the next compound below.
Complete the entry with growth for N#Cc1ncc(/N=C/c2ccc(N(CCCl)CCCl)cc2)s1 78.5

* * *

# Tested on: HCT-15 colon
# test.name: NCI-60 one-dose screen, 48 h (100 = growth as untreated, 0 = no growth, -100 = all killed)
# test.context: 10 µM
Compounds without any hit were thinned out: in the full panel of roughly 83,000, 20% have a hit.
readout.name: growth (%)
Give the value, in units of %, as a plain number.

compound | unit.descriptor | growth
CC(CC(C#N)(c1ccccc1)c1ccccc1)N1CCOCC1 (stereo unspecified) | % | 102
c1ccc2nc(OCCN3CC3)ccc2c1 | % | 86.5
Cc1cc(NC(=O)NCCOc2ccc(N3C(N)=NC(N)=NC3(C)C)cc2Cl)ccc1S(=O)(=O)F | % | 92
CCC(C)[C@H]1O[C@]2(C=C[C@@H]1C)C[C@@H]1C[C@@H](C/C=C(\C)[C@@H](OC3C[C@H](OC)C(O[C@H]4C[C@H](OC)[C@@H](O)[C@H](C)O4)[C@H](C)O3)[C@@H](C)/C=C/C=C3\CO[C@@H]4[C@H](O)C(C)=C[C@@H](C(=O)O1)[C@]34O)O2 (stereo partly specified) | % | -20.2
O=S(=O)(F)c1ncnc2nc[nH]c12 | % | 98.3
O=CC(Br)C(Br)c1ccccc1 (stereo unspecified) | % | 78.1
NC(Cc1ccc(O)cc1)C(=O)N/N=C/c1ccc(N(CCCl)CCCl)cc1 (stereo unspecified) | % | 85.8
CSc1ccccc1NP1(=O)OCC(C)([N+](=O)[O-])CO1 (stereo unspecified) | % | 93.1
OC1(c2ccc(Cl)cc2Cl)c2ccccc2C2=NCCN21 (stereo unspecified) | % | 101
O=C(O)c1cccc(CCl)c1 | % | 93

Complete the entry with growth for CCN1CC2(CN(CC)C1=S)C(=O)NC(=O)NC2=O 99.9

Complete the entry with growth for O=CN1N=C(c2ccc3c(c2)OCO3)CC1c1sc(N(CCCl)CCCl)nc1Cl (stereo unspecified) 99.5

Complete the entry with growth for CCCCCN(CCCCC)CC(O)c1ccc(C)c(Cl)c1 (stereo unspecified) 99.9

Complete the entry with growth for CCC[CH2][Sn]([CH2]CCC)([CH2]CCC)[O]C(=O)CC -72.9

Complete the entry with growth for CC(=O)[O][Hg][c]1nc2c(c(=O)n(C)c(=O)n2C)n1C 107

Complete the entry with growth for CC[C@]12C=CCN3CC[C@@]4(c5ccc(OC)cc5N(C)[C@H]4[C@@](O)(C(=O)OC)[C@@H]1OC(=O)CCCN1CCN(CCCC(=O)O[C@@H]4[C@]5(CC)C=CCN6CC[C@@]7(c8ccc(OC)cc8N(C)[C@H]7[C@@]4(O)C(=O)OC)[C@@H]65)CC1)[C@@H]32 -74.3

Complete the entry with growth for O=[N+]([O-])c1cc([N+](=O)[O-])c(Cl)c(Cl)c1Cl -49.1

Complete the entry with growth for COP(=S)(OC)Oc1ccc(SC)c(C)c1 105

Complete the entry with growth for O=c1cc[nH]c(=O)o1 104

Complete the entry with growth for CCCCCCCC(=O)OCC/C=C/C1OC1C1OC(=O)/C=C\C=C\c2nc(oc2C)/C=C(/C)CCC2OC2C1OC(=O)NC(C)=O (stereo unspecified) -5.6

Complete the entry with growth for COc1cc(NCCCCCN=C(N)N)c2ncccc2c1 99.2

Complete the entry with growth for O=C(c1cccs1)C1NO[N+]([O-])=C1c1cccs1 (stereo unspecified) 64.9

Complete the entry with growth for C[CH2][Pb]([CH2]C)([CH2]C)[O]C(=O)COc1ccccc1 12.4

* * *

# System: OVCAR-5 ovarian
# test.name: NCI-60 one-dose screen, 48 h (100 = growth as untreated, 0 = no growth, -100 = all killed)
# test.context: 10 µM unless noted
# Method: Growth inhibition of the OVCAR-5 human tumor cell line is measured as a screen for anti-cancer activity. Cells are grown in 96 well plates and exposed to the test compound for 48 hours. Compounds are tested at a single concentration, which is 10^-5 M for most compounds. The reported endpoint is percent growth (GI% or GIPRCNT), where numbers from 0 - 100% represent growth inhibition, and numbers from -100% - 0 represent cell death. For example, a value of 40 represents 60% growth inhibition. […]
About 83,000 compounds went through this panel and 20% of them were active in at least one assay; those are over-represented in the sample as a whole.
Catalogue of growth values
Give the value, in units of %, as a plain number.

Before answering, review these 3 worked examples.
molecule | unit.descriptor | growth
CC(C)(NC(=O)c1nn(CCCCCF)c2ccccc12)c1ccccc1 | % | 103
C[C@@H]1CC[C@@H]2[C@@H]1[C@H](OC(=O)/C=C/C1CCCCC1)[C@]1(C3CCCCC3)C[C@@H](OC(=O)CO)[C@@]2(C)O1 | % | 101
CC[CH2][Pb]([CH2]CC)([CH2]CC)[O]C(=O)C(F)(F)F | % | -99

Complete the entry with growth for N#CC(C#N)=Cc1ccc2ccccc2c1 106

Complete the entry with growth for Oc1c(Br)cc(Br)cc1Br.[Cu+2] 120

Complete the entry with growth for O=S(=O)(O)c1ccc(-c2ccc([As](=O)(O)O)cc2)cc1 106

Complete the entry with growth for CCCCNCCc1ccccn1 101

Complete the entry with growth for O=c1cc[nH]c(=O)o1 109

Complete the entry with growth for CC[C@@]1(C2O[C@@H](C3O[C@@](O)(CC)[C@H](C)C[C@@H]3C)C[C@@H]2C)CC[C@H]([C@]2(C)CCC3(C[C@H](O)[C@@H](C)[C@@H]([C@H](C)[C@@H](OC)[C@H](C)C(=O)O)O3)O2)O1 (stereo not given in full) 43.9

Complete the entry with growth for CO[C@@H](c1ccccc1Cl)[C@H](C)OC(N)=O 91.5

* * *

# System: HS 578T breast
# test.name: NCI-60 one-dose screen, 48 h
# test.context: 10 µM unless noted
The panel holds about 83,000 compounds, 20% with a hit somewhere; the sample as a whole holds those more often. The source made the active and inactive calls. The calls were made as follows: active = growth percent below 10; inactive = the rest.
Tick one outcome: active, inactive

molecule | qualitative.label
COc1cc(C2CC(=O)Nc3nc(N)[se]c32)cc(OC)c1OC (configuration not stated) | inactive

// outcome(item) with item = NCCc1cc(O)c(O)cc1O inactive
